Recorded koff for the following binders
# System: T1, hPRLR.mFc (soluble dimeric human PRLR) (human)
# T1 construct: dimeric PRLR construct
# T1 chain: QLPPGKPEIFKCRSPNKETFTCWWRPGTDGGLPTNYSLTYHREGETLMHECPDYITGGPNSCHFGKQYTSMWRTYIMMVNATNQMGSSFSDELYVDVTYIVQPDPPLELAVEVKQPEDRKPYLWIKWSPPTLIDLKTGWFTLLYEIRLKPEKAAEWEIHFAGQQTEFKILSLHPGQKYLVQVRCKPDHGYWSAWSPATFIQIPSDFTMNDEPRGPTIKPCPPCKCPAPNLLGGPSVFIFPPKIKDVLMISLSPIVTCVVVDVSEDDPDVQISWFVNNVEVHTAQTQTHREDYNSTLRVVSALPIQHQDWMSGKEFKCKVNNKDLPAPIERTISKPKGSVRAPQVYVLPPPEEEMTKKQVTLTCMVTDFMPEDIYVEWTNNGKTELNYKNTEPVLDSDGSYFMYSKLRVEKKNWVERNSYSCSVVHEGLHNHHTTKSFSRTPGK
# Method notes: SPR Biacore, 25 C, mAb capture
Dear colleague, please return just the value in s⁻¹, with no unit written.

Consider the following illustrative entries.
Binder	Value
H1H6976N (antibody, human IgG1, V domains shown, Tested with human IgG1 Fc (H1H); also called H2M6976N) VH: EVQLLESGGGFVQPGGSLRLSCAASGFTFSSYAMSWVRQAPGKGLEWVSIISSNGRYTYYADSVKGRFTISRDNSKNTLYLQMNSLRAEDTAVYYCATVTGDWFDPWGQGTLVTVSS VL: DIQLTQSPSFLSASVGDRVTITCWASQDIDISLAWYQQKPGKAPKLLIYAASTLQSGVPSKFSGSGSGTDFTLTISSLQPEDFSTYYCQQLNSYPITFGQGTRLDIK	0.000101
H1H6953N (antibody, human IgG1, V domains shown, Tested with human IgG1 Fc (H1H); also called H1M6953N) VH: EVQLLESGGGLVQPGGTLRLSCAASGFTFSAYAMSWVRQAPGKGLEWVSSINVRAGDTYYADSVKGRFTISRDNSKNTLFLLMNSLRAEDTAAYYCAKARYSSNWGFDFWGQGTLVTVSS VL: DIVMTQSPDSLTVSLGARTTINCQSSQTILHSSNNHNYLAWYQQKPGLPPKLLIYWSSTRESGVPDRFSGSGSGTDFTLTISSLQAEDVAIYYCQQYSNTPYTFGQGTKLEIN	4.77e-05
H1H6785P (antibody, human IgG1, V domains shown, Human IgG1 Fc (H1H)) VH: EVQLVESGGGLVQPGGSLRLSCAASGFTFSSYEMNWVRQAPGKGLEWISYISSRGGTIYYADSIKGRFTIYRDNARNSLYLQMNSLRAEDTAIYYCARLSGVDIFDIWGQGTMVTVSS VL: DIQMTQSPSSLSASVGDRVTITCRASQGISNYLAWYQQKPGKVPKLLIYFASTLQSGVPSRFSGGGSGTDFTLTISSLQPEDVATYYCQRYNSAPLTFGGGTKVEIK	6.07e-05

// recorded koff for H1H6975N (antibody, human IgG1, V domains shown, Tested with human IgG1 Fc (H1H); also called H2M6975N) VH: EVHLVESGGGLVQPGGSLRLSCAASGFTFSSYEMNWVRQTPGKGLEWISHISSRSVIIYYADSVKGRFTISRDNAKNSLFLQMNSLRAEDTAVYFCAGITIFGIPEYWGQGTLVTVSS VL: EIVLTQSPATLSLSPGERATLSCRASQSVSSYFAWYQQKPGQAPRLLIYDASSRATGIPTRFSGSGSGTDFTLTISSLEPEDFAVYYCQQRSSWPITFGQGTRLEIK : 1.97e-05

// recorded koff for H1H6803P (antibody, human IgG1, V domains shown, Human IgG1 Fc (H1H)) VH: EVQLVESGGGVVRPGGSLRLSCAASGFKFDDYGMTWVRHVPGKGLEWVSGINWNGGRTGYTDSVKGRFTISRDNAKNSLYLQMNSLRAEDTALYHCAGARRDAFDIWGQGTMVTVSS VL: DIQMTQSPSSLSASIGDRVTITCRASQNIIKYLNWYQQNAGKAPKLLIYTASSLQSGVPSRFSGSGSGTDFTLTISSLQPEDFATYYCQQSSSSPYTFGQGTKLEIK : 6.29e-05

Reference for the values: patent US20180185504A1
